Target System: NMDA receptor
Assay Remarks: Radioligand binding: displacement of [^3 H]CGS19755 from synaptosomal membranes of rat forebrain (NMDA receptor affinity)
Run Parameters: Table I; racemic; [^3 H]CGS19755 10 nM; mean ± standard error (n = 3), values marked ^c single experiment
Method: The formula I compounds were tested for their ability to inhibit NMDA, AMPA, and kainic acid receptor binding to rat membranes in a radioligand binding assay using [^3 H]CGS19755, [^3 H]AMPA, and [^3 H]KA. For all radioligand binding assays, male Sprague-Dawley rats were used. […] Non-specific binding was determined using 10 μM L-glutamate. […] Non-specific binding was determined using 100 μM non-labeled kainate. […] Non-specific binding was determined with 10 μM non-labeled AMPA. […]
Value Kind: IC50

# Molecule, IC50
data = [
    ("O=C(O)[C@@H]1C[C@H]2C[C@H](CSc3nnn[nH]3)CC[C@H]2CN1 (racemic) [Compound 5]", "47.9 µM"),
    ("O=C(CC[C@H]1CC[C@H]2CN[C@H](C(=O)O)C[C@H]2C1)Nc1nn[nH]n1 (relative stereo) [Compound 17]", "> 100 µM"),
    ("O=C(O)[C@@H]1C[C@H]2C[C@@H](CCc3cc(O)no3)CC[C@H]2CN1 (racemic) [Compound 13]", "> 100 µM"),
    ("O=C(O)[C@@H]1C[C@H]2C[C@@H](CCCCc3nnn[nH]3)CC[C@H]2CN1 (racemic) [Compound 10]", "> 100 µM"),
    ("O=C(O)[C@@H]1C[C@H]2C[C@@H](CCCc3nnn[nH]3)CC[C@H]2CN1 (racemic) [Compound 6]", "27 µM"),
]

// query Request - read-out IC50 | tested on NMDA receptor | molecule O=C(O)[C@@H]1C[C@H]2C[C@@H](CCSc3nnn[nH]3)CC[C@H]2CN1 (racemic) [Compound 9]
// result > 100 µM

// query Form field: IC50 recorded for CS(=O)(=O)NC(=O)CC[C@H]1CC[C@H]2CN[C@H](C(=O)O)C[C@H]2C1 (relative stereo) [Compound 16] with NMDA receptor (enter value)
// result > 100 µM

----------
Target System: AMPA receptor
Assay Remarks: Radioligand binding: [^3 H]AMPA binding with crude membranes of rat forebrain
Run Parameters: Table I; racemic; [^3 H]AMPA 5 nM, 100 mM KSCN; mean ± standard error (n = 3), values marked ^c single experiment; read-out: IC50 AMPA, receptor binding
pIC50: −log10 of the molar value.
Quick rule: pIC50 of at least 5 means yes (1), below that means no (0).

Use the examples below as a reference point.
# Compound, Target System, Label
records = [
    ("O=CN(Cc1nnn[nH]1)[C@H]1CC[C@H]2CN[C@H](C(=O)O)C[C@@H]2C1 (racemic)", "AMPA receptor", "no (0)"),
    ("O=C(CC[C@H]1CC[C@H]2CN[C@H](C(=O)O)C[C@H]2C1)Nc1nn[nH]n1 (relative stereo)", "AMPA receptor", "no (0)"),
    ("O=C(O)[C@@H]1C[C@H]2C[C@@H](CCCCc3nnn[nH]3)CC[C@H]2CN1 (racemic)", "AMPA receptor", "no (0)"),
]

// query Identify whether the reported pIC50 of the following compound is 5 or greater: O=C(O)CC[C@H]1CC[C@H]2CN[C@H](C(=O)O)C[C@H]2C1 (racemic)
// result no (0)

// query Is it the case that O=C(O)[C@@H]1C[C@H]2C[C@@H](C(Cc3nn[nH]n3)c3ccccc3)CC[C@H]2CN1 (stereo partly shown) has pIC50 reaching or exceeding 5?
// result yes (1)

// query Can CC(Cc1nn[nH]n1)[C@H]1CC[C@H]2CN[C@H](C(=O)O)C[C@H]2C1 (stereo partly shown) be said to have pIC50 at or above 5?
// result yes (1)

----------
Target System: NMDA receptor
Assay Remarks: Radioligand binding: displacement of [^3 H]CGS19755 from synaptosomal membranes of rat forebrain (NMDA receptor affinity)
Run Parameters: Table I; racemic; [^3 H]CGS19755 10 nM; mean ± standard error (n = 3), values marked ^c single experiment
Method: The formula I compounds were tested for their ability to inhibit NMDA, AMPA, and kainic acid receptor binding to rat membranes in a radioligand binding assay using [^3 H]CGS19755, [^3 H]AMPA, and [^3 H]KA. For all radioligand binding assays, male Sprague-Dawley rats were used. […] Non-specific binding was determined using 10 μM L-glutamate. […] Non-specific binding was determined using 100 μM non-labeled kainate. […] Non-specific binding was determined with 10 μM non-labeled AMPA. […]
Value Kind: IC50 (µM)
Express your answer in µM, writing the number without its unit.

Take a look at these entries with their results.
# Compound, IC50 / µM
measured = [
    ("O=C(O)[C@@H]1C[C@H]2C[C@@H](CSc3nnn[nH]3)CC[C@H]2CN1 (racemic)", 29.4),
    ("O=C(O)[C@@H]1C[C@H]2C[C@H](CCc3nn[nH]n3)CC[C@H]2CN1 (relative stereo)", 60.6),
    ("O=C(O)[C@@H]1C[C@H]2C[C@H](CCSc3nnn[nH]3)CC[C@H]2CN1 (racemic)", 49.2),
    ("O=C(O)[C@@H]1C[C@H]2C[C@H](CCS(=O)(=O)O)CC[C@H]2CN1 (racemic)", 61.8),
    ("O=C(O)CC[C@H]1CC[C@H]2CN[C@H](C(=O)O)C[C@H]2C1 (racemic)", 43.9),
]

// query Please state recorded IC50 (tested on NMDA receptor) of O=C(O)[C@@H]1C[C@H]2C[C@@H](C(Cc3nn[nH]n3)c3ccccc3)CC[C@H]2CN1 (some centres unmarked)
// result 13.8

----------
// reported IC50 KA, receptor binding per item
Target System: kainic acid (KA) receptor
Assay Remarks: Radioligand binding: tritiated kainate binding with washed synaptosomal membranes from the rat forebrain
Run Parameters: Table I; racemic; tritiated kainate 5 nM, pH 7.4; mean ± standard error (n = 3), values marked ^c single experiment

In the examples that follow, each entry is paired with its recorded IC50 KA, receptor binding.
# Molecule, Result
records = [
    ("O=C(O)[C@@H]1C[C@H]2C[C@@H](C(Cc3nn[nH]n3)c3ccccc3)CC[C@H]2CN1 (stereo partly shown)", "> 100 µM"),
    ("O=C(O)[C@@H]1C[C@H]2C[C@@H](CCCCc3nnn[nH]3)CC[C@H]2CN1 (racemic)", "> 100 µM"),
    ("O=C(O)[C@@H]1C[C@H]2C[C@@H](CS(=O)(=O)c3ncn[nH]3)CC[C@H]2CN1 (racemic)", "> 100 µM"),
    ("CS(=O)(=O)NC(=O)CC[C@H]1CC[C@H]2CN[C@H](C(=O)O)C[C@H]2C1 (relative stereo)", "> 100 µM"),
    ("O=C(O)CC[C@H]1CC[C@H]2CN[C@H](C(=O)O)C[C@H]2C1 (racemic)", "> 100 µM"),
]

// query Quick check: IC50 KA, receptor binding of O=C(O)[C@@H]1C[C@H]2C[C@H](CCSc3nnn[nH]3)CC[C@H]2CN1 (racemic) ?
// result 28.76 ± 2.21 µM

// query If you can, please state the reported IC50 KA, receptor binding value of O=C(O)[C@@H]1C[C@H]2C[C@@H](CSc3nnn[nH]3)CC[C@H]2CN1 (racemic) .
// result 30.1 ± 1.6 µM

// query Which value of IC50 KA, receptor binding has been reported for O=CN(Cc1nnn[nH]1)[C@H]1CC[C@H]2CN[C@H](C(=O)O)C[C@@H]2C1 (racemic) in the records?
// result > 100 µM

----------
Collected IC50 KA, receptor binding values appear next to each entry.
Target System: kainic acid (KA) receptor
Assay Remarks: Radioligand binding: tritiated kainate binding with washed synaptosomal membranes from the rat forebrain
Run Parameters: Table II; enantiopure; tritiated kainate 5 nM, pH 7.4; mean ± standard error (n = 3), values marked ^c single experiment

For orientation, consider the following solved cases.
# Compound, Result
records = [
    ("O=C(O)[C@@H]1C[C@H]2C[C@H](CCc3nn[nH]n3)CC[C@H]2CN1 [Compound 22]", "85.3 µM"),
    ("O=C(O)[C@@H]1C[C@H]2C[C@@H](CSc3nn[nH]n3)CC[C@H]2CN1 [Compound 23]", "12.5 µM"),
    ("O=C(O)[C@@H]1C[C@H]2C[C@@H](CS(=O)(=O)c3nc[nH]n3)CC[C@H]2CN1 [Compound 26]", "> 100 µM"),
    ("O=C(O)[C@@H]1C[C@H]2C[C@H](CSc3nn[nH]n3)CC[C@H]2CN1 [Compound 25]", "27.9 µM"),
    ("O=C(O)[C@H]1C[C@@H]2C[C@H](CSc3nn[nH]n3)CC[C@@H]2CN1 [Compound 24]", "> 100 µM"),
]

// query Value lookup for IC50 KA, receptor binding; key = O=C(O)[C@@H]1C[C@H]2C[C@@H](CCc3nn[nH]n3)CC[C@H]2CN1 [Compound 21]
// result 28.1 ± 1.7 µM

// query GET /values?readout=IC50 KA, receptor binding&item= O=C(O)[C@H]1C[C@@H]2C[C@H](CS(=O)(=O)c3nc[nH]n3)CC[C@@H]2CN1 [Compound 27]
// result > 100 µM
